target: nucleolin RBD1,2 (NCL RBD 1,2) (UniProt P19338 307-466); assay: fluorescence titration; TMPyP4; PAGE: 10 mM phosphate, 140 mM KCl, 20 uM DNA, 1:1(:1) ratio, 30 min; fluorescence titration buffer, pH and temperature not given in the material; details: protein: recombinant; unlabelled in PAGE; stem-loop duplex plus G4; monomer major, dimer band also seen
Sequence (P19338 307-466): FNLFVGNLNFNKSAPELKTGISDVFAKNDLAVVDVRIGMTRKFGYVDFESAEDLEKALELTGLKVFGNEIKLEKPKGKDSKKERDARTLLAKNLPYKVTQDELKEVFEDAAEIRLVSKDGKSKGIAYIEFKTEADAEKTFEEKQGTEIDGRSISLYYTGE
READOUT KIND: pKd
Give only the number. pKd is defined as minus log10 of concentration in molar units.

Requested read-out: pKd. Entry: GGTTGGGGTGGTGGTGGTTGTGGTGGTGGTGGCCAACC (structured_DNA) [AS1411-N6]
5.96
